read-out: Glutathione S-transferase M3 (GSTM3), GSTM3 (gene 2947); assay: LTEA_HepaRG_GSTM3: Life Technologies and Expression Analysis (LTEA) Assay for Glutathione S-transferase M3 (GSTM3) using HepaRG (AID 2283501); conditions: mRNA level, 48 h; actives raise or lower the signal
Calls of active or inactive are those of the source. Rule for the calls: active = hit-call score of the fitted dose curve at least 0.9, where 1 is the maximum; inactive = score below 0.9.
// classify into active, inactive

O=C(c1ccccc1)c1ccccc1
inactive
O=C1NS(=O)(=O)c2ccccc21
inactive
CCCCCCCCCCCCCCC
inactive
N=C(N)c1ccc(OCCCCCOc2ccc(C(=N)N)cc2)cc1
active
O=C(CCCN1CCC(O)(c2ccc(Cl)cc2)CC1)c1ccc(F)cc1
inactive
CS(=O)(=O)c1ccc([C@@H](CC2CCCC2)C(=O)Nc2cnccn2)cc1Cl
inactive
CCCCCCCCCCCCOS(=O)(=O)O
inactive
CN(Cc1cnc2nc(N)nc(N)c2n1)c1ccc(C(=O)N[C@@H](CCC(=O)O)C(=O)O)cc1
inactive
CCCCc1oc2ccccc2c1C(=O)c1cc(I)c(OCCN(CC)CC)c(I)c1
active

Moving on to the next molecule.
[ask] Please state the recorded outcome for this molecule: CCC(C)c1ccccc1O (stereo not given)
[reply] inactive
